- Tested on: UO-31 renal
- PROTOCOL NOTES: NCI tumour cell line growth inhibition, 48 h
Field: TGI. Provide a value for each of the compounds that follow.

Form field, TGI with UO-31 renal, item "CCn1c(-c2nonc2N)nc2c(C#CC(C)(C)O)nc(OCCNC)cc21" : > 25 µM

Form: item "OCCOCn1nncc1Cn1ncc2c(SCc3ccccc3)ncnc21" ; test system UO-31 renal; TGI: > 100 µM

The recorded TGI with UO-31 renal for "COc1ccc(-c2ccc(-c3ccc(C(=N)N)cn3)o2)cc1" was 17.3 µM

Item "CC[C@H](Nc1nc(C)nc(N)c1C#N)c1nc2cccc(NCc3ccc(C(=O)NO)cc3)c2c(=O)n1-c1ccccc1" ; assay system UO-31 renal; TGI reported as 2.47 µM

Readout TGI for "COc1ccc2c(c1)/C(=C\c1c(Cl)[nH]c3ccc(OC)cc13)C(=O)N2" , test system UO-31 renal, was > 100 µM

----------
Reported GI50, NCI-H460 lung.

Value of measured GI50 for the entry "O=C1c2cc(Cl)ccc2-c2c1c1ccc([N+](=O)[O-])cc1c(=O)n2CCCBr" : 931 nM

Recorded GI50 (molecule "CNCCn1c(=O)c2cc(OC)c(OC)cc2c2ccc3cc4c(cc3c21)OCO4" ): 22.6 nM

// sample "COc1ccc2[nH]c(O)c(C(=Nc3ccc(N(C)C(=O)CN4CCN(C)CC4)cc3)c3ccccc3)c2c1" , its GI50 was 2830 nM

Quick note, GI50 for "Cc1cc(Cl)ccc1Nc1nc(C(F)(F)F)ccc1C(=O)N/N=C/c1ccc([N+](=O)[O-])cc1" landed at 2280 nM

Just so you know, measured GI50 for O=C(O)C1CCCCC1C(=O)O.[NH-]C1CCC1.[NH2-].[Pt+2] (stereo unspecified) came out at 22700 nM

The reported value for "CCCOc1ccc2nc(NC(=O)OC)[nH]c2c1" in terms of GI50 is 324 nM

----------
- Test system: COLO 205 colon
- PROTOCOL NOTES: NCI tumour cell line growth inhibition, 48 h
Note to self: values exactly at 20 µM are Yes. So TGI at or above 20 µM is Yes, below is No.

Does "COc1ccc2c(c1)/C(=C\c1c(Cl)[nH]c3ccc(OC)cc13)C(=O)N2" have a reported TGI of at least 20 µM?
Yes

Hello, I need to know if "COc1cc2cc(C(=O)N3C[C@H](CCl)c4c3cc(N)c3ccccc43)[nH]c2c(OC)c1OC" has measured TGI not below 20 µM. Thanks!
No

Check if TGI >= 20 µM (inclusive). Item: COc1ccc(C2=NN(C=O)C(c3cccc(Nc4ccnc5cc(Cl)ccc45)c3)C2)cc1 (stereo unspecified)
No

I'd appreciate it if you could say whether "Cc1[nH]nc(C(=O)n2nc(N)c3ccccc32)c1[N+](=O)[O-]" has TGI at least equal to 20 µM.
Yes

For this molecule, is measured TGI 20 µM or higher? CCC(CO)Nc1nc(NCc2ccccc2)c2ncn(C(C)C)c2n1 (stereo unspecified)
Yes

API: above_or_equal(metric=TGI, cutoff=20 µM) for item "NCCCCNCCCNC(=O)c1nc(-c2nc(CCN)sc2Cl)sc1Cl"
Yes

Decide: TGI of "Cc1ccc(-c2csc(NC(=O)CN3CCN(c4cc5c(cc4F)c(=O)c(C(=O)O)cn5C4CC4)CC3)n2)cc1" >= 20 µM?
No

Is TGI for "COc1cc2c(=O)n(CCN)c3c4cc5c(cc4ccc3c2cc1OC)OCO5" at or above 20 µM?
No

API: above_or_equal(metric=TGI, cutoff=20 µM) for item "Cc1cc2c(cc1C)N(C(=O)CCl)CCN2C(=O)CCl"
No

I'd appreciate it if you could say whether "Cc1nc2sccn2c1-c1csc(Nc2cccc(Cl)c2C)n1" has TGI at least equal to 20 µM.
Yes

Quick check: does COc1ccc(/C=C2\CCCC(C(NO)c3ccc(OC)cc3)C2=NO)cc1 (stereo unspecified) have TGI greater than or equal to 20 µM?
Yes

Can O=C1NC2CCCCC2N=C1CC(=O)c1ccc(Br)cc1 (stereo unspecified) be said to have TGI at or above 20 µM?
Yes

Form field: TGI at least 20 µM? Entry: C=C1C(OC2O[C@@H]3O[C@@]4(C)CC[C@H]5[C@H](C)CC[C@@H](C2=C)[C@@]35O4)O[C@@H]2O[C@@]3(C)CC[C@H]4[C@H](C)CC[C@@H]1[C@@]24O3 (stereo partly specified)
Yes

# bool: TGI of CN1C(=O)N(C)C(O)C(Cl)(Br)C1=O (stereo unspecified) >= 20 µM
Yes

Reported TGI at or above 20 µM? "O=C1NC(=S)S/C1=C(/C=C(\CC(=O)c1ccccc1)c1ccc(Cl)cc1)c1ccccc1"
Yes

I'd appreciate it if you could say whether "Cc1ccc2c(c1)-c1c(C#N)c(N)nc(-c3ccc(Cl)cc3)c1CCS2(=O)=O" has TGI at least equal to 20 µM.
Yes

Is TGI at least 20 µM? Consider "CCCCOc1ccc(OCCCCCCCCCC[N+](C)(C)C)cc1"
No

Is the recorded value of TGI equal to or greater than 20 µM for this molecule? NC(=O)c1csc(C2(O)COC(CO)C2O)n1 (stereo unspecified)
Yes

Entry "O=c1[nH]c2nc3ccccc3nc2[nH]c1=O" : is its TGI no less than 20 µM?
Yes

Decide: is the reported value of TGI for Cc1cc2ncn(C3CCCCO3)c2cc1C (stereo unspecified) equal to or greater than 20 µM?
Yes
